test_system: UniProt P08173
assay_comment: mAChR M4 cell-based functional assay: calcium mobilization (Fluo-4, FDSS), potentiation of EC20 acetylcholine response in hM4-Gqi5 CHO-K1 cells
condition_label: potentiation of EC20 acetylcholine response, calcium mobilization, human M4
pEC50 listing for selected compounds.
The read-out pEC50 is expressed as -log10 of concentration in moles per litre.

1. Cc1cc(F)c(F)c(-c2cnc3c(c2)CN(c2nn4c(=O)cc(C)nc4c(C)c2C)CC3)c1; 6.09

In plain terms, `Cc1ccc(-c2cnc3c(c2)CN(c2nn4c(=O)c(C)cnc4cc2C)CC3)cn1` has a documented pEC50 of 6.61

In plain terms, `COc1nccc(-c2cnc3c(c2)CN(c2nn4c(=O)ccnc4cc2C)CC3)c1C` has a documented pEC50 of 5.82

In plain terms, `Cc1c(N2CCc3ncc(-c4ccc(F)c(F)c4)cc3C2)nn2c(=O)cc(C(F)F)nc2c1C` has a documented pEC50 of 6.05

In plain terms, `Cc1cc(=O)n2nc(N3CCc4ncc(-c5cc(F)ccc5C)cc4C3)c(C)c(C)c2n1` has a documented pEC50 of 6.72

In plain terms, `Cc1c(N2CCc3ncc(-c4cnn(CCN5CCOCC5)c4)cc3C2)nn2c(=O)cc(C(F)F)nc2c1C` has a documented pEC50 of 6.47

In plain terms, `Cc1cc2nccc(=O)n2nc1N1CCc2ncc(-c3cccc4c3CCC4)cc2C1` has a documented pEC50 of 6.32

In plain terms, `Cc1cc2nc(C(F)F)cc(=O)n2nc1N1CCc2ncc(C(F)(F)F)cc2C1` has a documented pEC50 of 6.85

In plain terms, `COc1ccc(-c2cnc3c(c2)CN(c2nn4c(=O)cc(C)nc4c(C)c2C)CC3)cn1` has a documented pEC50 of 6.34

* * *

test_system: human mAChR M4 (Homo sapiens)
Construct: expressed in transfected cells; host or cells: CHO-K1 (American Type Culture Collection), stably expressing hM4 and Gqi5
Sequence (P08173 1-479): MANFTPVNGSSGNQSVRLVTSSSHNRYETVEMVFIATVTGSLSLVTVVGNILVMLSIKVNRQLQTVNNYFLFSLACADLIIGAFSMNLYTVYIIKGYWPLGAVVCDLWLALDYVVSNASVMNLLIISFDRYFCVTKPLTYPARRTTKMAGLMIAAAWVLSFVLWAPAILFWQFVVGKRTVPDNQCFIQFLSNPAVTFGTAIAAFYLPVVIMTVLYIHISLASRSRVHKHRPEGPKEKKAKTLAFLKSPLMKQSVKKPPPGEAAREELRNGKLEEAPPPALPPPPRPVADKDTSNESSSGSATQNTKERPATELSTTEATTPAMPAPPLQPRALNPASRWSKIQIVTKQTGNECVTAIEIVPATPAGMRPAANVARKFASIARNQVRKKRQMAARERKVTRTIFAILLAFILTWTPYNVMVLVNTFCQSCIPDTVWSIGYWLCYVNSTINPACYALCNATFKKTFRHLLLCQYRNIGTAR
assay_comment: mAChR M4 cell-based functional assay: calcium mobilization (Fluo-4, FDSS), potentiation of EC20 acetylcholine response in hM4-Gqi5 CHO-K1 cells
condition_label: CHO-K1, % ACh maximum at 30 μM; human M4
Please note: Emax at 30 µM exactly at 80% is no. Only values below 80% get yes.

// known answers, use as guide
1. Cc1cc(=O)n2nc(N3CCc4ncc(-c5ccccc5F)cc4C3)c(C)cc2n1; yes
2. COCc1cc(=O)n2nc(N3CCc4ncc(-c5ccsc5)cc4C3)c(C)cc2n1; no
3. Cc1cc2nccc(=O)n2nc1N1CCc2ncc(-c3sccc3C)cc2C1; no
4. COCc1cc(=O)n2nc(N3CCc4ncc(-c5cnc(F)cc5C)cc4C3)c(C)cc2n1; yes
5. Cc1ccc(-c2cnc3c(c2)CN(c2nn4c(=O)ccnc4c(C4CC4)c2C)CC3)cn1; yes

Data request: Strictly below 80%: is that where Emax at 30 µM of `Cc1c(N2CCc3ncc(-c4ccc5nccn5c4)cc3C2)nn2c(=O)ccnc2c1C` sits?
Data returned: yes

Data request: Strictly below 80%: is that where Emax at 30 µM of `Cc1cc(=O)n2nc(N3CCc4ncc(-c5cc(F)ccc5C)cc4C3)c(C)cc2n1` sits?
Data returned: no

* * *

Emax at 30 µM listing for selected compounds.
test_system: human mAChR M4 (Homo sapiens, UniProt P08173)
Construct: expressed in transfected cells; host or cells: CHO-K1 (American Type Culture Collection), stably expressing hM4 and Gqi5
assay_comment: mAChR M4 cell-based functional assay: calcium mobilization (Fluo-4, FDSS), potentiation of EC20 acetylcholine response in hM4-Gqi5 CHO-K1 cells
condition_label: CHO-K1, % ACh maximum at 30 μM; human M4

Some compounds with recorded Emax at 30 µM:
1. [2H]C1([2H])Cc2ncc(-c3c(C)noc3C)cc2C([2H])([2H])N1c1nn2c(=O)ccnc2cc1C [Compound 1-450]; 95%
2. Cc1ccc(-c2cnc3c(c2)CN(c2nn4c(=O)ccnc4cc2C)CC3)nn1 [Compound 1-353]; 55%
3. Cc1cc(=O)n2nc(N3CCc4ncc(-c5ccccc5C(C)C)cc4C3)c(C)cc2n1 [Compound 1-230]; 43%
4. Cc1cc(=O)n2nc(N3CCc4ncc(-c5cnn6ccccc56)cc4C3)c(C)c(C)c2n1 [Compound 1-181]; 95%
5. Cc1cc2nccc(=O)n2nc1N1CCc2ncc(-c3cn(C)nc3C)cc2C1 [Compound 1-2]; 87%

In plain terms, Cc1ccc(-c2cnc3c(c2)CN(c2nn4c(=O)cc(C(F)F)nc4c(C)c2C)CC3)cc1 [Compound 1-169] has a documented Emax at 30 µM of 89%

In plain terms, COCc1cc(=O)n2nc(N3CCc4ncc(-c5cc(F)c(F)cc5F)cc4C3)c(C)cc2n1 [Compound 1-335] has a documented Emax at 30 µM of 68%

* * *

test_system: human mAChR M4 (Homo sapiens, UniProt P08173)
Construct: expressed in transfected cells; host or cells: CHO-K1 (American Type Culture Collection), stably expressing hM4 and Gqi5
assay_comment: mAChR M4 cell-based functional assay: calcium mobilization (Fluo-4, FDSS), potentiation of EC20 acetylcholine response in hM4-Gqi5 CHO-K1 cells
condition_label: CHO-K1, % ACh maximum at 30 μM; human M4
metric_name: Emax at 30 µM (%)
Give the value in % but do not write % after it.

Some molecules with recorded Emax at 30 µM:
1) Cc1cc2nccc(=O)n2nc1N1CCc2ncc(N3c4ccc(F)cc4OCC3C)cc2C1 (centres unmarked); 89
2) COc1ccccc1-c1cnc2c(c1)CN(c1nn3c(=O)cc(C)nc3c(C)c1C)CC2; 79
3) Cc1ccccc1-c1cnc2c(c1)CN(c1nn3c(=O)ccnc3c(C)c1C)CC2; 83
4) Cc1cc(=O)n2nc(N3CCc4ncc(-c5ccccc5C5CC5)cc4C3)c(C)cc2n1; 56
5) COCc1cc(=O)n2nc(N3CCc4ncc(-c5ccnc(C)c5)cc4C3)c(C)cc2n1; 82
6) COc1ccc(-c2cnc3c(c2)CN(c2nn4c(=O)cc(C)nc4c(C)c2C)CC3)cn1; 84

In plain terms, `Cc1cc2nc(C(C)(C)O)cc(=O)n2nc1N1CCc2ncc(C(F)(F)F)cc2C1` has a documented Emax at 30 µM of 82

In plain terms, `Cc1cc2nc(C(F)F)cc(=O)n2nc1N1CCc2ncc(Nc3ccncc3F)cc2C1` has a documented Emax at 30 µM of 94

In plain terms, `Cc1ccc(-c2cnc3c(c2)CN(c2nn4c(=O)cc(C(F)F)nc4cc2C)CC3)cn1` has a documented Emax at 30 µM of 103

In plain terms, `Cc1cc2nccc(=O)n2nc1N1CCc2ncc(-n3cccn3)cc2C1` has a documented Emax at 30 µM of 65

In plain terms, `Cc1cc2nccc(=O)n2nc1N1CCc2ncc(-c3cn(C(F)F)nc3C)cc2C1` has a documented Emax at 30 µM of 82

In plain terms, `Cc1cc(=O)n2nc(N3CCc4ncc(-c5cnc(Cl)cc5C)cc4C3)c(C)c(C)c2n1` has a documented Emax at 30 µM of 81

* * *

test_system: human mAChR M4 (Homo sapiens)
Construct: expressed in transfected cells; host or cells: CHO-K1 (American Type Culture Collection), stably expressing hM4 and Gqi5
assay_comment: mAChR M4 cell-based functional assay: calcium mobilization (Fluo-4, FDSS), potentiation of EC20 acetylcholine response in hM4-Gqi5 CHO-K1 cells
condition_label: CHO-K1, % ACh maximum at 30 μM; human M4
Please note: Emax at 30 µM exactly at 90% is condition not met. Only values below 90% get condition met.

// known answers, use as guide
1) COCc1cc(=O)n2nc(N3CCc4ncc(-c5ccc(C)nc5)cc4C3)c(C)cc2n1 [Compound 1-314]; condition not met
2) Cc1cc(N)ncc1-c1cnc2c(c1)CN(c1nn3c(=O)ccnc3cc1C)CC2 [Compound 1-404]; condition not met
3) Cc1c(N2CCc3ncc(C(F)(F)F)cc3C2)nn2c(=O)ccnc2c1C1CC1 [Compound 1-113]; condition met
4) Cc1ccc(-c2cnc3c(c2)CN(c2nn4c(=O)c(C)c(C)nc4cc2C)CC3)cn1 [Compound 1-83]; condition met
5) Cc1cc(=O)n2nc(N3CCc4ncc(-c5cnccn5)cc4C3)c(C)cc2n1 [Compound 1-260]; condition met

Data request: Strictly below 90%: is that where Emax at 30 µM of Cc1cc2nc(C(F)F)cc(=O)n2nc1N1CCc2ncc(Nc3ccnn3C)cc2C1 [Compound 2-27] sits?
Data returned: condition met

Data request: Strictly below 90%: is that where Emax at 30 µM of Cc1cc(=O)n2nc(N3CCc4ncc(-c5ccc(C(F)(F)F)nc5)cc4C3)c(C)c(C)c2n1 [Compound 1-130] sits?
Data returned: condition met

Data request: Strictly below 90%: is that where Emax at 30 µM of COc1cnccc1-c1cnc2c(c1)CN(c1nn3c(=O)cc(C)nc3cc1C)CC2 [Compound 1-259] sits?
Data returned: condition met
